Recorded activity at 10 µM for the following compounds
Tested on: SW-620
Experiment: NCI-60 screening, one-dose (10 µM) and five-dose, SRB
Type: cell-based, human
Conditions: Homo sapiens; 10 μM; SW-620, Colon Cancer; read-out: Growth percentage

>  <compound>
Cc1nc(SCC(=O)N2CCN(c3cc4c(cc3F)c(=O)c(C(=O)O)cn4C3CC3)CC2)sc1C(=O)/C=C/c1ccc(Cl)cc1 [Compound 4c]

>  <activity at 10 µM, %>
113

$$$$
>  <compound>
Cc1nc(SCC(=O)N2CCN(c3cc4c(cc3F)c(=O)c(C(=O)O)cn4C3CC3)CC2)sc1C(=O)/C=C/c1cccc(F)c1 [Compound 4d]

>  <activity at 10 µM, %>
3.2

$$$$
>  <compound>
Cc1nc(SCC(=O)N2CCN(c3cc4c(cc3F)c(=O)c(C(=O)O)cn4C3CC3)CC2)sc1C(=O)/C=C/c1ccc(N(C)C)cc1 [Compound 4i]

>  <activity at 10 µM, %>
117

$$$$
>  <compound>
Cc1nc(SCC(=O)N2CCN(c3cc4c(cc3F)c(=O)c(C(=O)O)cn4C3CC3)CC2)sc1C(=O)/C=C/c1ccc(F)cc1 [Compound 4e]

>  <activity at 10 µM, %>
126

$$$$
>  <compound>
Cc1nc(SCC(=O)N2CCN(c3cc4c(cc3F)c(=O)c(C(=O)O)cn4C3CC3)CC2)sc1C(=O)/C=C/c1ccc([N+](=O)[O-])cc1 [Compound 4h]

>  <activity at 10 µM, %>
78.2

$$$$
>  <compound>
CC(=O)c1sc(SCC(=O)N2CCN(c3cc4c(cc3F)c(=O)c(C(=O)O)cn4C3CC3)CC2)nc1C [Compound 4a]

>  <activity at 10 µM, %>
113

$$$$
>  <compound>
Cc1nc(SCC(=O)N2CCN(c3cc4c(cc3F)c(=O)c(C(=O)O)cn4C3CC3)CC2)sc1C(=O)/C=C/c1cccc([N+](=O)[O-])c1 [Compound 4g]

>  <activity at 10 µM, %>
69.8

$$$$

---

Tested on: SK-MEL-5
Test: NCI-60 screening, one-dose (10 µM) and five-dose, SRB
Type: cell-based, human
Conditions: Homo sapiens; 10 μM; SK-MEL-5, Melanoma; read-out: Growth percentage

>  <structure-smiles>
COc1ccc(/C=C/C(=O)c2sc(SCC(=O)N3CCN(c4cc5c(cc4F)c(=O)c(C(=O)O)cn5C4CC4)CC3)nc2C)cc1

>  <target-desc>
SK-MEL-5

>  <measure-unit>
%

>  <activity at 10 µM>
99.7

$$$$
>  <structure-smiles>
Cc1nc(SCC(=O)N2CCN(c3cc4c(cc3F)c(=O)c(C(=O)O)cn4C3CC3)CC2)sc1C(=O)/C=C/c1ccc([N+](=O)[O-])cc1

>  <target-desc>
SK-MEL-5

>  <measure-unit>
%

>  <activity at 10 µM>
83.5

$$$$
>  <structure-smiles>
Cc1nc(SCC(=O)N2CCN(c3cc4c(cc3F)c(=O)c(C(=O)O)cn4C3CC3)CC2)sc1C(=O)/C=C/c1cccc(F)c1

>  <target-desc>
SK-MEL-5

>  <measure-unit>
%

>  <activity at 10 µM>
45.1

$$$$

---

Test system: U251
Assay: NCI-60 screening, one-dose (10 µM) and five-dose, SRB
Type: cell-based, human
Settings: Homo sapiens, U-251; 10 μM; U251, CNS Cancer; read-out: Growth percentage
Recorded activity at 10 µM for the following compounds

>  <structure-smiles>
Cc1nc(SCC(=O)N2CCN(c3cc4c(cc3F)c(=O)c(C(=O)O)cn4C3CC3)CC2)sc1C(=O)/C=C/c1ccc(F)cc1

>  <activity at 10 µM, %>
114

$$$$
>  <structure-smiles>
Cc1nc(SCC(=O)N2CCN(c3cc4c(cc3F)c(=O)c(C(=O)O)cn4C3CC3)CC2)sc1C(=O)/C=C/c1ccc([N+](=O)[O-])cc1

>  <activity at 10 µM, %>
59.9

$$$$
>  <structure-smiles>
Cc1nc(SCC(=O)N2CCN(c3cc4c(cc3F)c(=O)c(C(=O)O)cn4C3CC3)CC2)sc1C(=O)/C=C/c1ccc(Br)cc1

>  <activity at 10 µM, %>
98.4

$$$$
